Protocol summary: chemical genetic growth profiling, strain panel (AID 1159580);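 note: tested at 20 µM; growth read once vehicle control cultures reached saturation at 30 °C; 1 = growth at the plate median or of vehicle wells; lower values mean less growth of the strain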
Cond: S. cerevisiae deletion strains, growth OD, locus YIL073C, strain SPO22
The campaign covered roughly 5,500 compounds. About 2,000 (36%) were called active. About 18% were inconclusive and are not listed. Cut-off read from the data, not from the text of the source: active = normalized growth mostly below about 0.91 (no sharp cut-off); inconclusive = no clear call, values can overlap the other calls; inactive = mostly above about 0.92. Some of the results follow.
Pick one and only one: active, inactive

For orientation, consider the following solved cases.
Compound	Assigned category
Fc1ccc(C(c2ccc(F)cc2)N2CCN(C/C=C/c3ccccc3)CC2)cc1	active
CCOc1nc2cccc(C(=O)OC(C)OC(=O)OC3CCCCC3)c2n1Cc1ccc(-c2ccccc2-c2nn[nH]n2)cc1 (configuration not stated)	inactive
CCCCC(=O)N(Cc1ccc(-c2ccccc2-c2nn[nH]n2)cc1)[C@H](C(=O)O)C(C)C	inactive

What did the test return for CC1=C(C(=O)O)N2C(=O)[C@@H](NC(=O)[C@H](N)C3=CCC=CC3)C2SC1 (some centres not stated) ?
inactive

Hi, do you know how COc1cc2ccc(=O)oc2c2ccoc12 came out in this test?
inactive

Look up the recorded call for CN1CCN(C(c2ccccc2)c2ccccc2)CC1 in this test.
inactive

Which outcome was entered for the compound N#C/C(=C\c1ccc(O)cc1)C(=O)O in this test?
inactive

###

Protocol summary: chemical genetic growth profiling, strain panel (AID 1159580)
Cond: S. cerevisiae deletion strains, growth OD, locus YAL026C, strain drs2, active compounds read low
In all, about 5,500 compounds went through this assay and about 2,000 (36%) were called active. Another 18% or so got no clear call; they are omitted. This is one part of the list.
Parameter measured: normalized growth
// no unit string in output, number only

Molecule	normalized growth
Cn1c([N+](=O)[O-])cnc1COC(N)=O	1.02
C[N+]1(C)C2CC[C@H]1CC(OC(=O)C(O)c1ccccc1)C2 (some centres undefined)	1
COc1ccc2c(c1)[nH]c1c(C)nccc12	1
Cn1nnnc1SCC1=C(C(=O)O)N2C(=O)C(NC(=O)C(OC=O)c3ccccc3)C2SC1 (centres undefined)	0.999
C[C@]12CCC3c4ccc(O)cc4CCC3C1CC[C@@H]2OC(=O)CCC1CCCC1 (some centres undefined)	0.997

Entry N#C/C(=C\c1ccc(O)cc1)C(=O)O , normalized growth reported as 1

Looking up O=C(O)CCCN1C(=O)c2cccc3cccc(c23)C1=O , I found its normalized growth recorded as 1.02

Kindly note the recorded normalized growth for CSCCC(NC=O)C(=O)NC(CC(C)C)C(=O)NC(Cc1ccccc1)C(=O)O (centres undefined) , which is 1

###

normalized growth values for the compounds below.
Protocol summary: chemical genetic growth profiling, strain panel (AID 1159580)
Cond: S. cerevisiae deletion strains, growth OD, locus YJL129C, strain trk1, active compounds read low
Hit rate of the full screen: of about 5,500 compounds, about 2,000 (36%) were called active. About 18% were inconclusive and are not listed. The list shows a part of the results.
Could you respond with only the numeric value?

Solved cases below.
Compound	Parameter measured	Quantitative readout
Cc1c(N(C)CS(=O)(=O)O)c(=O)n(-c2ccccc2)n1C	normalized growth	1.01
O=C(O)c1cc2cc(Cl)ccc2[nH]1	normalized growth	0.99
COP(=S)(OC)SCn1nnc2ccccc2c1=O	normalized growth	1.02
CC1(C)C[C@@H]2C(=O)CC[C@H]3O[C@]3(C)CC[C@H]21	normalized growth	1.02
O=c1cc(-c2ccc(O)cc2)oc2cc(O[C@@H]3O[C@H](CO)[C@@H](O)[C@H](O)[C@H]3O[C@@H]3OC[C@](O)(CO)[C@H]3O)cc(O)c12	normalized growth	0.998

The reported normalized growth of the compound CCNc1nc(Cl)nc(NC(C)C)n1 was 0.982

Reported normalized growth for CC(=O)O[C@H]1CC2CCC3C(CC[C@@]4(C)C3C[C@H]([N+]3(C)CCCCC3)[C@@H]4OC(C)=O)[C@@]2(C)C[C@@H]1[N+]1(C)CCCCC1 (some centres undefined) was 1.02

Form: compound = COc1c2occc2cc2ccc(=O)oc12 ; normalized growth = 0.987

Record Cn1nnnc1SCC1=C(C(=O)O)N2C(=O)C(NC(=O)C(OC=O)c3ccccc3)C2SC1 (centres undefined) , field normalized growth: 1

###

Protocol summary: chemical genetic growth profiling, strain panel (AID 1159580)
Cond: S. cerevisiae deletion strains, growth OD, locus YOR106W, strain vam3, active compounds read low
In all, about 5,500 compounds went through this assay and about 2,000 (36%) were called active. About 18% were inconclusive and are not listed. Some of the results follow.
Parameter measured: normalized growth

Compound	Result
COc1ccc2[nH]cc(CCNC(C)=O)c2c1	0.982 (inactive)
FC(F)(F)COCC(F)(F)F	1.04 (inactive)
CCNc1nc(Cl)nc(NC(C)C)n1	1.04 (inactive)

Please fill in: normalized growth reported for CNC(=O)CSP(=S)(OC)OC = 1.01 (inactive)

// normalized growth value for CSCCC(NC=O)C(=O)NC(CC(C)C)C(=O)NC(Cc1ccccc1)C(=O)O (configuration not stated) : 1.01 (inactive)

Memo: CC(=O)O[C@@H]1CC2C(C)(C)[C@H](O)C[C@H](O)[C@]2(C)C2CC[C@@]3(C)C(=CC(=O)O[C@H]3c3ccoc3)[C@@]21C (some centres not stated) , reported normalized growth: 0.946 (inactive)

Lab note: measured normalized growth of COc1ccc2c(c1)[nH]c1c(C)nccc12 was 0.983 (inactive)

Measured normalized growth of Cc1c(N(C)CS(=O)(=O)O)c(=O)n(-c2ccccc2)n1C : 1.03 (inactive)

The recorded normalized growth for entry CN1Cc2c(N)cccc2C(c2ccccc2)C1 (configuration not stated) equals 1.03 (inactive)

###

Protocol summary: chemical genetic growth profiling, strain panel (AID 1159580)
Cond: S. cerevisiae deletion strains, growth OD, locus YDR502C, strain sam2
Out of some 5,500 compounds screened, about 2,000 (36%) were called active. Roughly 18% stayed inconclusive and do not appear here. Cut-off read from the data, not from the text of the source: active = normalized growth mostly below about 0.91 (no sharp cut-off); inconclusive = no clear call, values can overlap the other calls; inactive = mostly above about 0.92. The list shows a part of the results.
Outcomes you can answer with include only these: active, inactive

Compound	Assigned category
CC(=O)N[C@@H](CC(=O)O)C(=O)O	inactive

Status in this test for O=c1[nH]c2ccccc2n1C1CCN(CCCC(c2ccc(F)cc2)c2ccc(F)cc2)CC1 ?
inactive

Kindly provide the recorded test outcome for the following compound: Cn1c([N+](=O)[O-])cnc1COC(N)=O
inactive

Query: recorded result category for COc1c2occc2cc2ccc(=O)oc12 in this test
inactive

Please state the recorded outcome for this compound: COC(=O)C1=CO[C@@H](O[C@@H]2O[C@H](CO)[C@@H](O)[C@H](O)[C@H]2O)[C@@H]2[C@@H](C)[C@@H](O)C[C@H]12
inactive

Lab log entry: CCS(=O)(=O)CCn1c([N+](=O)[O-])cnc1C — outcome as called in the assay?
inactive

Record lookup: outcome of this test for CC(=O)OC1CCC23C(=O)OC45CCC(C6=CC(=O)OC6)C4(C)CCC2C5CCC3(O)C1 (stereo not given) ?
inactive

Which outcome did this test record for the compound Nc1ncnc2nc[nH]c12 ?
active

Entry Cc1ncc([N+](=O)[O-])n1CCO : call = ?
inactive

Could you please tell me the result logged for COc1cc2ccc(=O)oc2c2ccoc12 in this assay?
inactive

###

Listed here are compounds together with their documented normalized growth.
Protocol summary: chemical genetic growth profiling, strain panel (AID 1159580);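 note: tested at 20 µM; growth read once vehicle control cultures reached saturation at 30 °C; 1 = growth at the plate median or of vehicle wells; lower values mean less growth of the strain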
Cond: S. cerevisiae deletion strains, growth OD, locus YEL061C, strain CIN8, active compounds read low
The campaign covered roughly 5,500 compounds. About 2,000 (36%) were called active. About 18% were inconclusive and are not listed. The list shows a part of the results.
Please respond with just the number, no unit label.

Solved entries:
COc1cc(O)c(C(=O)O)c(O)c1 1
COc1ccc2c(=O)c(CC(=O)O)coc2c1 1.01
COc1cc(OC)cc(OC)c1 1
CN1CCN(C(c2ccccc2)c2ccccc2)CC1 0.975
O=c1[nH]c2ccccc2n1C1CCN(CCCC(c2ccc(F)cc2)c2ccc(F)cc2)CC1 0.989

Lab book: normalized growth of COc1ccc(-n2c(SCc3ccc(Br)cc3)nnc2-c2ccco2)cc1 noted as 1.01

###

Protocol summary: chemical genetic growth profiling, strain panel (AID 1159580);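 note: tested at 20 µM; growth read once vehicle control cultures reached saturation at 30 °C; 1 = growth at the plate median or of vehicle wells; lower values mean less growth of the strain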
Cond: S. cerevisiae deletion strains, growth OD, locus YMR205C, strain PFK2, active compounds read low
In all, about 5,500 compounds went through this assay and about 2,000 (36%) were called active. Another 18% or so got no clear call; they are omitted. This is one part of the list.
Measured normalized growth, listed per entry.
Number only, please.

Answered examples (4):
Compound	Quantitative readout
FC(F)(F)COCC(F)(F)F	1
CC(=O)N[C@@H](CC(=O)O)C(=O)O	0.993
O=c1c(-c2ccc3c(c2)OCO3)coc2cc(O)ccc12	0.978
COc1cc(OC)c2c(c1Cl)OC1(C2=O)C(O)=CC(=O)CC1C (stereo not given)	1.02

Switching to the query record.
Documented normalized growth of COc1ccc2c(=O)c(-c3cc4c(cc3OC)OCO4)coc2c1 : 1.01

###

Listed below: normalized growth values for each entry.
Protocol summary: chemical genetic growth profiling, strain panel (AID 1159580);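 note: tested at 20 µM; growth read once vehicle control cultures reached saturation at 30 °C; 1 = growth at the plate median or of vehicle wells; lower values mean less growth of the strain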
Cond: S. cerevisiae deletion strains, growth OD, locus YPR119W, strain clb2, active compounds read low
In all, about 5,500 compounds went through this assay and about 2,000 (36%) were called active. About 18% were inconclusive and are not listed. The list shows a part of the results.
Number only, please.

Solved entries (count: 8):
Compound	normalized growth
CC(C(=O)O)c1ccc(N2Cc3ccccc3C2=O)cc1 (centres undefined)	0.993
CCCc1nc(C(C)(C)O)c(C(=O)OCc2oc(=O)oc2C)n1Cc1ccc(-c2ccccc2-c2nn[nH]n2)cc1	0.992
O=c1n(CCCN2CCN(c3cccc(Cl)c3)CC2)nc2ccccn12	0.99
CCCCC(=O)O[C@H]1CCC2C3CCc4cc(O)ccc4C3CC[C@@]21C (some centres undefined)	0.998
CCC(=O)O[C@H]1CCC2C3CCc4cc(O)ccc4C3CC[C@@]21C (some centres undefined)	0.995
CC(=O)OC1CCC2C3CCc4cc(O)ccc4C3CCC12C (centres undefined)	1
NCCS	1.01
O=C(O)c1cc2cc(Cl)ccc2[nH]1	0.983

Documented normalized growth of CCOc1nc2cccc(C(=O)OC(C)OC(=O)OC3CCCCC3)c2n1Cc1ccc(-c2ccccc2-c2nn[nH]n2)cc1 (centres undefined) : 0.992
